Target: T1, mouse CTGF (Abbexa) (mouse, UniProt P29268 26-348, limits assumed)
T1 construct: also called Murine CTGF; mCTGF
T1 sequence (looked up): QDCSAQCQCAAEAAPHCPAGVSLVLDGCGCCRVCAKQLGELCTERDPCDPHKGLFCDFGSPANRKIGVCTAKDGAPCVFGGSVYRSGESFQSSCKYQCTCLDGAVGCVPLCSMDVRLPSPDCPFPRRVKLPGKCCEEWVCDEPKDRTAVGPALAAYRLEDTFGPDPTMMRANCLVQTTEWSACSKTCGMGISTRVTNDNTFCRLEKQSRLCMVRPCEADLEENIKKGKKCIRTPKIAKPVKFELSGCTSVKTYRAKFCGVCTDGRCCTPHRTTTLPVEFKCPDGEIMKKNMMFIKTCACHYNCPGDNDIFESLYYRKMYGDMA
Assay: SPR (Biacore)
Method: The binding of exemplary lipocalin muteins to human (Creative Biomart), cynomolgus, rat (R&D Systems) and mouse CTGF (Abbexa) was determined by SPR using a Biacore instrument (Cytiva, formerly GE Healthcare). Some targets were fused to a human IgG1 Fc tag, and captured via the anti-human IgG antibody kit, others were directly immobilized. For some measurements, human CTGF with a human IgG1 Fc Tag or rat or murine CTGF without a tag were directly immobilized to a CM5 Chip. […]
experimental.endpoint: pKd
Keep in mind that pKd stands for -log10 of concentration in molar terms.

Solved cases (2 shown):
lipocalin mutein of SEQ ID NO: 31 (designed binder, also called hNGAL mutein; not shown: C-terminal His-tag) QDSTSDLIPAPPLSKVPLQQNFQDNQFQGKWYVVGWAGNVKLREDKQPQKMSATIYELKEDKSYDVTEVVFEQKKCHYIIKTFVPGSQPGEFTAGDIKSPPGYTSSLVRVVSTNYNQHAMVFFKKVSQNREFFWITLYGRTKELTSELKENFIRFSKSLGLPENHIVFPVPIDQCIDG ... 8.80
lipocalin mutein of SEQ ID NO: 32 (designed binder, also called hNGAL mutein; not shown: C-terminal His-tag) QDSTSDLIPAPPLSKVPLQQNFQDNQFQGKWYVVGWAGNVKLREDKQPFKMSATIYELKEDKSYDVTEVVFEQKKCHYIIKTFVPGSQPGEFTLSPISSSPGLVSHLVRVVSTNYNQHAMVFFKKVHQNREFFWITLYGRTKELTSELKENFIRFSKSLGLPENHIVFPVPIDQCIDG ... 8.70

Field: next binder
## Input Quick one: pKd for lipocalin mutein of SEQ ID NO: 21 (designed binder, also called hNGAL mutein; not shown: C-terminal His-tag) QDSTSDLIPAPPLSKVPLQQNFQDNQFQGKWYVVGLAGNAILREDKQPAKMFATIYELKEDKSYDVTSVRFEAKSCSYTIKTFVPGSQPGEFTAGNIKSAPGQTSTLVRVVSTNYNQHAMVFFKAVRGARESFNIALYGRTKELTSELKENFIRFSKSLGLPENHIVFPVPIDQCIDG ?
## Output 9.76
